- protocol text: Cilengitide oral bioavailability, plasma level by LC-MS after intra-gastric gavage
- Format: in vivo
- experimental context: mouse, plasma, po; mice; 100 mg/kg intra-gastric gavage; 60 minute time point; read-out: cilengitide levels in plasma

| molecule | level at 1 h, ng/mL |
| --- | --- |
| CC(C)[C@H]1C(=O)N[C@@H](CCCN=C(N)N)C(=O)NCC(=O)N[C@@H](CC(=O)O)C(=O)N[C@H](Cc2ccccc2)C(=O)N1C [Cilengitide] | 94.2 |
